Target: SERT (Homo sapiens (Human))
Conditions: stable 5HTT cells, 30 minutes at 37° C.
pIC50: −log10 of the molar value.
// values below are reported pIC50

Look over these answered cases.
| molecule | system | pIC50 |
| --- | --- | --- |
| COc1ccc(C23CCN(C)C2CC2(CC3)OCCO2)cc1OC (stereo not drawn) | SERT (Homo sapiens (Human)) | < 6.00 |
| COc1ccc([C@]23CCN(C)[C@H]2CC2(CC3)SCCS2)cc1OC | SERT (Homo sapiens (Human)) | < 6.00 |
| COc1ccc([C@@]23CCN(C)[C@@H]2CC2(CC3)SCCS2)cc1OC | SERT (Homo sapiens (Human)) | 6.30 to 7.00 |
| COc1ccc([C@]23CCN(C)[C@H]2CC2(CC3)OCCO2)cc1OC | SERT (Homo sapiens (Human)) | > 7.30 |
| CO/N=C1/CC[C@@]2(c3ccc(OC)c(OC)c3)CCN(C)[C@H]2C1 | SERT (Homo sapiens (Human)) | > 7.30 |

Below: the item to evaluate.
q: Read the entry CO/N=C1\CC[C@@]2(c3ccc(OC)c(OC)c3)CCN(C)[C@H]2C1 and write its reported pIC50.
a: > 7.30

* * *

// values below are reported Condition 2 Conversion (%)
Format: physicochemical
Conditions: DI water, 25° C., 0.5 mM; time 1 min
Write the answer as a number in %, unit excluded.

q: Read the entry COc1ccc([C@@]23CC/C(=N\NC(=O)NCCc4cccs4)C[C@@H]2N(C)CC3)cc1OC [Compound 256] and write its reported Condition 2 Conversion (%).
a: 0

q: Read the entry COc1ccc([C@@]23CCC(=NNC(=O)c4ccc(F)cc4)C[C@@H]2N(C)CC3)cc1OC [Compound 220] and write its reported Condition 2 Conversion (%).
a: 20.02

q: Read the entry COc1ccc([C@@]23CCC(=NNC(=O)COc4ccccc4)C[C@@H]2N(C)CC3)cc1OC [Compound 223] and write its reported Condition 2 Conversion (%).
a: 9.8

q: Read the entry COc1ccc([C@@]23CCC(=NNC(=O)Nc4ccc(C(=O)O)cc4)C[C@@H]2N(C)CC3)cc1OC (racemic) [Compound 259] and write its reported Condition 2 Conversion (%).
a: 0

* * *

Experiment: Plasma Stability Assay of Example A3, mouse plasma
Conditions: 0 min; 5 μM, 37° C.; % of prodrug compound remaining
// values below are reported Mouse Plasma Prodrug (%)
Write the answer as a number in %, unit excluded.

q: Read the entry COc1ccc([C@@]23CCC(OC(=O)c4cccc(N(C)C)c4)=C[C@@H]2N(C)CC3)cc1OC [Compound 307] and write its reported Mouse Plasma Prodrug (%).
a: 100.0

q: Read the entry COc1ccc([C@@]23CCC(OC(=O)c4c(C)cccc4C)=C[C@@H]2N(C)CC3)cc1OC [Compound 372] and write its reported Mouse Plasma Prodrug (%).
a: 100

q: Read the entry COc1ccc([C@@]23CCC(OC(=O)c4cccc(C)c4)=C[C@@H]2N(C)CC3)cc1OC [Compound 374] and write its reported Mouse Plasma Prodrug (%).
a: 100

q: Read the entry COc1ccc([C@@]23CCC(OC(=O)C(C)(C)C)=C[C@@H]2N(C)CC3)cc1OC [Compound 309] and write its reported Mouse Plasma Prodrug (%).
a: 100.0

q: Read the entry C=C(C)C(=O)OC1=C[C@@H]2N(C)CC[C@]2(c2ccc(OC)c(OC)c2)CC1 [Compound 315] and write its reported Mouse Plasma Prodrug (%).
a: 100.0

q: Read the entry COc1ccc([C@@]23CCC(OC(=O)C(c4ccccc4)c4ccccc4)=C[C@@H]2N(C)CC3)cc1OC [Compound 306] and write its reported Mouse Plasma Prodrug (%).
a: 100.0

q: Read the entry COc1ccc([C@@]23CCC(OC(=O)c4cccc(C)c4C)=C[C@@H]2N(C)CC3)cc1OC [Compound 373] and write its reported Mouse Plasma Prodrug (%).
a: 100

q: Read the entry COc1ccc([C@@]23CCC(OC(=O)c4ccc(N(C)C)cc4)=C[C@@H]2N(C)CC3)cc1OC [Compound 355] and write its reported Mouse Plasma Prodrug (%).
a: 100.0

q: Read the entry COc1ccc([C@@]23CCC(OC(=O)c4ccc(F)cc4)=C[C@@H]2N(C)CC3)cc1OC [Compound 353] and write its reported Mouse Plasma Prodrug (%).
a: 100
